Read-out record for Cannabinoid receptor 1 (Homo sapiens): pKi
For clarity, pKi is expressed as the negative log10 of concentration in mol/L.

Looking for the measured pKi of O=S(=O)(NC[C@@H]1CC[C@@H](c2ccc(Cl)cc2Cl)N(c2ccc(Cl)cc2)C1)C1CC1 , can you help?
6.80

Looking for the measured pKi of O=C(NCc1ccc(Cl)cc1)[C@@H]1CC[C@@H](c2ccc(Cl)cc2Cl)N(c2ccc(Cl)cc2)C1 , can you help?
7.20

Looking for the measured pKi of CC(C)(C)OC(=O)N1CCN(C[C@@H]2CC[C@@H](c3ccc(Cl)cc3Cl)N(c3ccc(Cl)cc3)C2)CC1 , can you help?
8.10

Looking for the measured pKi of Fc1ccc(C[C@H]2CC[C@H](c3ccc(Cl)cc3)N(c3ccc(Cl)cc3)C2)cc1F (relative stereo) , can you help?
7.14

###

assay: Drug level in DIO mouse brain at 3 mg/kg, po after 24 hrs; format: ADME, organism-based; parameters: dose 3 mg/kg, route oral; conditions: read-out: Drug uptake
ASSAY_READOUT: concentration at 24 h (ng/g)
Quick reminder: number only, in ng/g, skip the unit.

Looking for the measured concentration at 24 h of N#Cc1ccc(C(=O)NC[C@@H]2CC[C@@H](c3ccc(Cl)cc3Cl)N(c3ccc(Cl)cc3)C2)cc1 , can you help?
12

Looking for the measured concentration at 24 h of O=S(=O)(NCCC1CCC(c2ccc(Cl)cc2Cl)N(c2ccc(Cl)cc2)C1)C1CC1 (stereo in doubt; 14f) , can you help?
66

###

Answer each item with its documented Ki.
Quick reminder: number only, in µM, skip the unit.

Give recorded Ki with UniProt:P21554 for the following compound: O=S(=O)(NCCC1CCC(c2ccc(Cl)cc2Cl)N(c2ccc(Cl)cc2)C1)C1CC1 (single isomer, unassigned; enantiomer 2)
0.057

Give recorded Ki with UniProt:P21554 for the following compound: Clc1ccc(N2C[C@H](CN3CCNCC3)CC[C@H]2c2ccc(Cl)cc2Cl)cc1
0.554

Give recorded Ki with UniProt:P21554 for the following compound: CC(C)CNC(=O)[C@@H]1CC[C@@H](c2ccc(Cl)cc2Cl)N(c2ccc(Cl)cc2)C1
0.033

Give recorded Ki with UniProt:P21554 for the following compound: CC(=O)NCC[C@@H]1CC[C@@H](c2ccc(Cl)cc2Cl)N(c2ccc(Cl)cc2)C1
0.042

Give recorded Ki with UniProt:P21554 for the following compound: O=C(NC[C@@H]1CC[C@@H](c2ccc(Cl)cc2Cl)N(c2ccc(Cl)cc2)C1)C1CC1
0.112

Give recorded Ki with UniProt:P21554 for the following compound: CCCS(=O)(=O)NC[C@@H]1CC[C@@H](c2ccc(Cl)cc2Cl)N(c2ccc(Cl)cc2)C1
0.048

Give recorded Ki with UniProt:P21554 for the following compound: O=C1[C@H](Cc2ccc(F)c(F)c2)CC[C@H](c2ccc(Cl)cc2)N1c1ccc(Cl)cc1 (relative stereo)
0.714

Give recorded Ki with UniProt:P21554 for the following compound: O=C1[C@@H](Cc2ccc(F)c(F)c2)CC[C@H](c2ccc(Cl)cc2)N1c1ccc(Cl)cc1 (relative stereo)
0.444

Give recorded Ki with UniProt:P21554 for the following compound: CC(C)CCNS(=O)(=O)[C@@H]1CC[C@@H](c2ccc(Cl)cc2Cl)N(c2ccc(Cl)cc2)C1
0.0091

Give recorded Ki with UniProt:P21554 for the following compound: CC(C)(C)CC(=O)N1CCN(C[C@@H]2CC[C@@H](c3ccc(Cl)cc3Cl)N(c3ccc(Cl)cc3)C2)CC1
0.013

Give recorded Ki with UniProt:P21554 for the following compound: NC[C@@H]1CC[C@@H](c2ccc(Cl)cc2Cl)N(c2ccc(Cl)cc2)C1
0.133

Give recorded Ki with UniProt:P21554 for the following compound: O=C1[C@@H](Cc2ccc(F)c(F)c2)CC[C@H](c2ccc(Cl)cc2Cl)N1c1ccc(Cl)cc1 (relative stereo)
0.109

Give recorded Ki with UniProt:P21554 for the following compound: CC(C)(C)CCN1CCN(C[C@@H]2CC[C@@H](c3ccc(Cl)cc3Cl)N(c3ccc(Cl)cc3)C2)CC1
0.057

Give recorded Ki with UniProt:P21554 for the following compound: Fc1ccc(C[C@H]2CC[C@H](c3ccc(Cl)cc3Cl)N(c3ccc(Cl)cc3)C2)cc1F (relative stereo)
0.015

###

pKi: −log10 of the molar value.
Answer each item with its documented pKi.

Give recorded pKi with Cannabinoid receptor 2 (Homo sapiens) for the following molecule: N#Cc1ccc(S(=O)(=O)NCC[C@@H]2CC[C@@H](c3ccc(Cl)cc3Cl)N(c3ccc(Cl)cc3)C2)cc1
Sequence (P34972 whole entry): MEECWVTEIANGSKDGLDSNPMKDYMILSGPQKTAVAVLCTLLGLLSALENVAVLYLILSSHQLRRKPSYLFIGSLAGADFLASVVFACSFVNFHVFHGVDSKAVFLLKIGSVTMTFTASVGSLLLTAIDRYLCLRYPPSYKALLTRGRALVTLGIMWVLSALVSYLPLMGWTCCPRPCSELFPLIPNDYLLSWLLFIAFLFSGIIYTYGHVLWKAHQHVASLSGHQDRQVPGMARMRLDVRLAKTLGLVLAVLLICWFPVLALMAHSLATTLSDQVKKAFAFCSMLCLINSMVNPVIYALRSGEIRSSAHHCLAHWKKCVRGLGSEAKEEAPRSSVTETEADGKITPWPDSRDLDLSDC
< 5.65

Give recorded pKi with Cannabinoid receptor 2 (Homo sapiens) for the following molecule: CC(C)CCNS(=O)(=O)[C@@H]1CC[C@@H](c2ccc(Cl)cc2Cl)N(c2ccc(Cl)cc2)C1
5.86

Give recorded pKi with Cannabinoid receptor 2 (Homo sapiens) for the following molecule: CC(C)(C)CC(=O)N1CCN(C[C@@H]2CC[C@@H](c3ccc(Cl)cc3Cl)N(c3ccc(Cl)cc3)C2)CC1
< 5.62

Give recorded pKi with Cannabinoid receptor 2 (Homo sapiens) for the following molecule: N#Cc1ccc(C(=O)NC[C@@H]2CC[C@@H](c3ccc(Cl)cc3Cl)N(c3ccc(Cl)cc3)C2)cc1
5.85

Give recorded pKi with Cannabinoid receptor 2 (Homo sapiens) for the following molecule: Fc1ccc(C[C@H]2CC[C@H](c3ccc(Cl)cc3)N(c3ccc(Cl)cc3Cl)C2)cc1F (relative stereo)
< 5.73

Give recorded pKi with Cannabinoid receptor 2 (Homo sapiens) for the following molecule: NC[C@@H]1CC[C@@H](c2ccc(Cl)cc2Cl)N(c2ccc(Cl)cc2)C1
< 5.73

Give recorded pKi with Cannabinoid receptor 2 (Homo sapiens) for the following molecule: O=C(NC1CCC1)[C@@H]1CC[C@@H](c2ccc(Cl)cc2Cl)N(c2ccc(Cl)cc2)C1
5.86

Give recorded pKi with Cannabinoid receptor 2 (Homo sapiens) for the following molecule: Clc1ccc(N2C[C@H](CN3CCNCC3)CC[C@H]2c2ccc(Cl)cc2Cl)cc1
< 5.70

Give recorded pKi with Cannabinoid receptor 2 (Homo sapiens) for the following molecule: O=C1[C@@H](Cc2ccc(F)c(F)c2)CC[C@H](c2ccc(Cl)cc2)N1c1ccc(Cl)cc1 (relative stereo)
6.24

Give recorded pKi with Cannabinoid receptor 2 (Homo sapiens) for the following molecule: NCC[C@@H]1CC[C@@H](c2ccc(Cl)cc2Cl)N(c2ccc(Cl)cc2)C1
< 5.65

Give recorded pKi with Cannabinoid receptor 2 (Homo sapiens) for the following molecule: O=C1[C@H](Cc2ccc(F)c(F)c2)CC[C@H](c2ccc(Cl)cc2)N1c1ccc(Cl)cc1 (relative stereo)
< 5.75

Give recorded pKi with Cannabinoid receptor 2 (Homo sapiens) for the following molecule: O=S(=O)(C[C@@H]1CC[C@@H](c2ccc(Cl)cc2Cl)N(c2ccc(Cl)cc2)C1)NC1CCCCC1
5.90

Give recorded pKi with Cannabinoid receptor 2 (Homo sapiens) for the following molecule: O=C(NCc1ccc(Cl)cc1)[C@@H]1CC[C@@H](c2ccc(Cl)cc2Cl)N(c2ccc(Cl)cc2)C1
< 5.73
